Items are presented alongside their recorded pIC50.
# measurement target: full-length human PKCι (Homo sapiens)
# Construct: Recombinant, full-length human PKCι expressed in Sf21 insect cells is also commercially available; purchased; host or cells: Sf21 insect cells
# Sequence (P41743 whole entry): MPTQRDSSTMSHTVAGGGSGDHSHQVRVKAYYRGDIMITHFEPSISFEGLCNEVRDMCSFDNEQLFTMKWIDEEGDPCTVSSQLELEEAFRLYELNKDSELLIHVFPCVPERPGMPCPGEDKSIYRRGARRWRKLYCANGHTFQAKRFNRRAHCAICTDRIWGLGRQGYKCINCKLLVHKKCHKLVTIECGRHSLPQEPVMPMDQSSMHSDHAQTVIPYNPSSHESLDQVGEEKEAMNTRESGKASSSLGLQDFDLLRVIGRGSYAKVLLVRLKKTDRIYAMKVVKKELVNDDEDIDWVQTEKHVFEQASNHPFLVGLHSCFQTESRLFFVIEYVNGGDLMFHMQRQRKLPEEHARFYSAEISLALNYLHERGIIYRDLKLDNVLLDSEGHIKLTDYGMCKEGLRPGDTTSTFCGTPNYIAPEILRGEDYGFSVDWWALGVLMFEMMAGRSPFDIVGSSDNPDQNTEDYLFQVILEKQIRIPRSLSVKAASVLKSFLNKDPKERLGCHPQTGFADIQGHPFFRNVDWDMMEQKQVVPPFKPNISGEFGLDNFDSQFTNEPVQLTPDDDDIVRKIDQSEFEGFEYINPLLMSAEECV
# assay name: PKCι IC50 IMAP fluorescence polarisation assay, full-length enzyme
# Type: biochemical
# experimental context: full length PKCi at 15 μM ATP; read-out: IC50 in IMAP assay against full length PKCi
pIC50: −log10 of the molar value.

N[C@H](CNc1nc(-c2ccncc2)nc2c(C#Cc3cscn3)csc12)Cc1ccccc1 6.00 to 7.00

Q: Field request: pIC50 | item: CN1CCN(c2cccc(Nc3cc(-c4nc(N[C@@H]5CCNC5)c5sccc5n4)ccn3)c2)CC1
Result: 6.00 to 7.00

Q: Field request: pIC50 | item: NC(=O)CN1C[C@H](Nc2nc(-c3ccnc(NC(=O)c4cccs4)c3)nc3ccsc23)[C@@H](O)C1
Result: 5.00 to 6.00

Q: Field request: pIC50 | item: Cc1sc2c(NC[C@@H](N)Cc3ccccc3)nc(-c3ccncc3)nc2c1-c1cc(Cl)ccc1OC(C)C
Result: 4.40 to 5.00
